Experiment: label from the status in PepcDB records
METRIC NAME: protein production

MKRNSSIDLMKSCAIFFVISVHFLLNSGFYDMTIHSTLAIFWIGIRTILITCVPLFLVATGFLMNRKELSAQYVLGIVPVIISYIGISLLVWGVLSLVGKGSDFSTAINGIFDYSTDSYSWYVEMYLGLYLFIPLLNIIWNYKKEIKNYHLYIVFIASLLTFLPSLLNSFGKVIPDYWQICYPVSYYFIGAYLYTYQNEIKKISIGKLVTAFLSALTIFTLTDTFASWNQEFQWLDHNDYFGYQTAIMTVLVIAILWRTPIPKWSVRLLKALSTATLTIYLISDLTDQFVYGFFKHEIPNLSQRVIAGPIIIPVAFTSAALLGIFVGKVLNIPFKRKKERKEN :: failed
ELVVKRGEIFGVVGPTGSGKSNLISDIEQLAQGDTPSNRKILVNGNVPDTEMRRDPRKRRIAQLSQNMNFLADMTVEEFLIMHAKSRGMNSEGIVDKVIKLANNLTGEPIEKDYNLTILSGGQSRSLMVADVAVISDSPIVLIDEIENAGIKKHEALELLAGCGKIVMVITHDPVLALMTTRRVVMRNGGMNEIIETTE :: failed

====

Assay: label from the status in PepcDB records
METRIC NAME: protein production

MLKILKRIVQDVTAASDLKEALGILVQRINTAINAEAVSVYLIDNKNAEYVLIATEGLNKQAEFRVRIALDCGLIGLIGRREEPINIENAPSHPDFYHNPLIGEDHLNAFLGVPIIQHRKLYGVLVVQQLEQRYFDDAEESFLITLAAQLGGIIAHAEATGELAELTQ :: failed
MATGQDRVVALVDMDCFFVQVEQRQNPHLRNKPCAVVQYKSWKGGGIIAVSYEARAFGVTRSMWADDAKKLCPDLLLAQVRESRGKANLTKYREASVEVMEIMSRFAVIERASIDEAYVDLTSAVQERLQKLQGQPISADLLPSTYIEGLPQGPTTAEETVQKEGMRKQGLFQWLDSLQIDNLTSPDLQLTVGAVIVEEMRAAIERETGFQCSAGISHNKVLAKLACGLNKPNRQTLVSHGSVPQLFSQMPIRKIRSLGGKLGASVIEILGIEYMGELTQFTESQLQSHFGEKNGSWLYAMCRGIEHDPVKPRQLPKTIGCSKNFPGKTALATR :: failed

====

Test: label from the status in PepcDB records
METRIC NAME: protein production

MTSLNRPPFDFKTQYSLGFNAQDDEIVVDFFCGGGGAGTGLEMGLGRKVSVAKNHSAAAISMHTANHPGAKHFTTDVFDGDPDTECGGKAVGWFHMSPDCTHHSQAAGGQPRKREIRNLSWIGLKWAGKKKPRVVSLENVKQILQWGPLVAKRCKSTGRVVKLGGGIAAPGEVVPVDQQFLVPDPARRGQTWAVFVAELERLGYAVEWRVVRACDFGAPTSRERLFMIARCDGQSIVWPEPTHAKRPSKGQQPLKSAAECIDFSDLGKSIFERKKDLAQATLRRVAKGM :: failed
MTQQPRSTARTPASAEDPAAAAAHPPLAAPRPPAEHRVWPRTFHDRLTAPLPGLKAFARFAREGAVRPGPAGLADVPRLPCAPGPLPRVDARTVAVTWAGHASWVVRIGGLTVLTDPVWSRRILGTPPRVTPVGVPWSALPRVDAVVISHNHYDHLDAPTLRRLPRDTPVLVPAGLGRWFHRRRFTHVTELDWWEATELNGVRFDFVPAHHWSKRSLTDTCRTLWGGWVLTDPDGRRVYFAGDTGYGHWFTRIGRRYPGIDLALLPIGAYDPRWWLSDVHCDPEEAVRAAQDVGARRMAPMHWGTFVLSAEPVLEPLARVRAAWQQAGLPRERLWDLPIGASRVLE :: failed

Where do the numbers come from? From a protein production outcome set (Wang et al. 2014).
